- system_name: ATP-sensitive inward rectifier potassium channel 1 (Homo sapiens, UniProt P48048)
- assay_protocol: Inhibition of human ROMK2 expressed in HEK293 cells after 20 mins by Thallos-AM dye based fluorescence assay
- Format: cell-based
pIC50: −log10 of the molar value.
// not satisfied strictly below 7 in pIC50; satisfied otherwise

COc1ccc(C(=O)NCc2nc(C)no2)cc1S(=O)(=O)Nc1ccc(C)cc1
not satisfied

Is pIC50 at least 7? Consider `Cc1noc(CNC(=O)c2ccc(C)c(S(=O)(=O)Nc3ccc(-c4cnco4)cc3)c2)n1`
satisfied

Could you do the same for `Cc1ccc(C(=O)NCc2cn(C)nn2)cc1S(=O)(=O)Nc1ccc(-c2ccno2)cc1` , please?
not satisfied

Could you do the same for `Cc1ccc(NS(=O)(=O)c2cc(C(=O)NCc3cccnc3)ccc2C)cc1` , please?
not satisfied

###

- system_name: UniProtKB P48048
- Sequence (P48048 whole entry): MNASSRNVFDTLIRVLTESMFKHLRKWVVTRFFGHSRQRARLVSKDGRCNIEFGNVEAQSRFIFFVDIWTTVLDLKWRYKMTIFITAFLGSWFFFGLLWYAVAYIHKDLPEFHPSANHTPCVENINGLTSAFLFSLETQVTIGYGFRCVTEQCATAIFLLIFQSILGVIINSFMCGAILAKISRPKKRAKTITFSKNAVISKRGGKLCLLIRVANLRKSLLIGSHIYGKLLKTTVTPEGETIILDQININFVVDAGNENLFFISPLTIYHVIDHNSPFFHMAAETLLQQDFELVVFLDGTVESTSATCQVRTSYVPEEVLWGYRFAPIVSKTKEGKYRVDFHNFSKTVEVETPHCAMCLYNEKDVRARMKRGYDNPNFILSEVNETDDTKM
- assay_protocol: Inhibition of human ROMK2 expressed in HEK293 cells after 20 mins by Thallos-AM dye based fluorescence assay
- Format: cell-based
experimental_readout: pIC50
pIC50 here is simply -log10 of the concentration when that concentration is written in mol/L.

Use these answered entries as a reference point.
Cc1noc(CNC(=O)c2ccc(C)c(S(=O)(=O)Nc3ccc(-c4ccno4)cc3)c2)n1
6.96
COc1ccc(C(=O)NC(C)c2cnn(C)n2)cc1S(=O)(=O)Nc1ccc(Cl)cc1 (single isomer, unassigned; (-))
6.80
Cc1noc(CNC(=O)c2ccc(C)c(S(=O)(=O)Nc3ccc(Cl)cc3)c2)n1
7.07

Next:
# lookup: pIC50 of `Cc1ccc(C(=O)NCc2cn(C)nn2)cc1S(=O)(=O)Nc1ccc(Cl)cc1`
7.07
